assay: Pharmacokinetics in dogs after SC and IV administration; details: dog, in vivo, sc, 0.1 mg/kg
Where a SMILES comes first, the peptide text is derived from it. [ ]: non-standard residue; d: D form. Arg(Me) = CNC(=N)NCCC[C@H](N)C(=O)O; Hyp = O=C(O)[C@@H]1C[C@@H](O)CN1; azaGly = NNC(=O)O
measure: bioavailability (%)

{"columns": ["compound", "measurement.unit", "recorded.value"],
 "data": [
  ["CNC(=N)NCCC[C@H](NC(=O)[C@H](CC(C)C)NC(=O)NNC(=O)[C@H](Cc1ccccc1)NC(=O)[C@@H](NC(=O)[C@H](CC(N)=O)NC(=O)[C@@H]1C[C@@H](O)CN1C(=O)[C@@H](Cc1ccc(O)cc1)NC(C)=O)[C@@H](C)O)C(=O)N[C@@H](Cc1c[nH]c2ccccc12)C(N)=O [Compound 1] (Ac-[dY][Hyp]NTF[azaGly]L[Arg(Me)]W-NH2)", "%", 81.5]
]}
